Assay: Acidity constant in aqueous solution was determined
Type: ADME
metric: pKa
Give the figure by itself; no unit, no explanation.

Problem: Form field: reported pKa of COc1ccc(CSC2c3cccc(O)c3C(=O)c3c(O)cccc32)cc1
Solution: 6.1

Problem: Likewise for O=C1c2c(O)cccc2C(Sc2ccc(O)cc2)c2cccc(O)c21 ?
Solution: 6.2

Problem: Now this one: O=C1c2c(O)cccc2C(Sc2ccccc2)c2cccc(O)c21
Solution: 5.4

Problem: Likewise for CCCCOC(=O)CCSC1c2cccc(O)c2C(=O)c2c(O)cccc21 ?
Solution: 5.7

Problem: COc1ccc(SC2c3cccc(O)c3C(=O)c3c(O)cccc32)cc1 , same question.
Solution: 7.9

Problem: Also Nc1ccccc1SC1c2cccc(O)c2C(=O)c2c(O)cccc21 ?
Solution: 8.4

----------
Experiment: half life in ethanol at 25 degrees celsius
Type: ADME
metric: half-life (h)
Your answer should be a plain number; it is taken to be in h.

Problem: Find the recorded half-life belonging to O=C1c2c(O)cccc2C(SCCc2ccccc2)c2cccc(O)c21 and report it.
Solution: 3

----------
Experiment: Half life in DMSO at 25 degrees celsius was determined
Type: ADME
Criterion: half-life strictly under 30 h. Met: t. Not met: f.

# compound_smiles, category
records = [
    ("CCCCOC(=O)CCSC1c2cccc(O)c2C(=O)c2c(O)cccc21", "t"),
    ("O=C1c2c(O)cccc2C(Sc2ccc(O)cc2)c2cccc(O)c21", "f"),
    ("O=C1c2c(O)cccc2C(Sc2ccccc2)c2cccc(O)c21", "t"),
    ("COc1ccc(SC2c3cccc(O)c3C(=O)c3c(O)cccc32)cc1", "f"),
    ("COc1ccc(CSC2c3cccc(O)c3C(=O)c3c(O)cccc32)cc1", "t"),
]

Now look at this entry.
Problem: # check: half-life < 30 h for Nc1ccccc1SC1c2cccc(O)c2C(=O)c2c(O)cccc21
Solution: t

----------
Here, each record is paired with measured pIC50 data.
Biological target: Arachidonate 5-lipoxygenase (Bos taurus)
Sequence (Q9BEG3 whole entry): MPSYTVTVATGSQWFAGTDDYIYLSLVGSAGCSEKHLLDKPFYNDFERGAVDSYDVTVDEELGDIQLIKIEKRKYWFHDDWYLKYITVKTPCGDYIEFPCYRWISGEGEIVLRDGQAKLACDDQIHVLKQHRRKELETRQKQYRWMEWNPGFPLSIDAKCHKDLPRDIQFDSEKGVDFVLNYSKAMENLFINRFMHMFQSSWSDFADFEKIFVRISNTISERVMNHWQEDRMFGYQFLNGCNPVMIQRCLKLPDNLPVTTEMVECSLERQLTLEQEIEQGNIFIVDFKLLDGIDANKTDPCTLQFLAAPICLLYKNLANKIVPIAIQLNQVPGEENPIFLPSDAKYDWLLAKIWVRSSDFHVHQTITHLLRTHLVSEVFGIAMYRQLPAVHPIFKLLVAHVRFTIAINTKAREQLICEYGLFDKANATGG
Assay: Tested for inhibition of 5-lipoxygenase as inhibition of 5-HETE and LTB4 biosynthesis in bovine PMNL
Note on units: pIC50 is unitless, being -log10 of a concentration expressed in mol/L.

# compound_smiles, subject_of_test, metric, reported_result
rows = [
    ("O=C1c2c(O)cccc2C(SCCO)c2cccc(O)c21", "Arachidonate 5-lipoxygenase (Bos taurus)", "pIC50", 5.70),
    ("CCCCOC(=O)CCSC1c2cccc(O)c2C(=O)c2c(O)cccc21", "Arachidonate 5-lipoxygenase (Bos taurus)", "pIC50", 4.52),
]

Lab note: next compound to report on.
Problem: Form field: pIC50 recorded for COc1ccc(SC2c3cccc(O)c3C(=O)c3c(O)cccc32)cc1 with Arachidonate 5-lipoxygenase (Bos taurus) (enter value)
Solution: 5.52

----------
Molecular target: Arachidonate 5-lipoxygenase (Bos taurus)
Assay: Tested for inhibition of 5-lipoxygenase as inhibition of 5-HETE and LTB4 biosynthesis in bovine PMNL
pIC50: −log10 of the molar value.
metric: pIC50

Known pIC50 results, listed for orientation:
# molecule, pIC50
rows = [
    ("O=C1c2c(O)cccc2C(SCCCS)c2cccc(O)c21", "< 4.52"),
    ("CC(SC1c2cccc(O)c2C(=O)c2c(O)cccc21)C(=O)O (stereo not drawn)", "< 4.52"),
]

Consider now this further molecule.
Problem: # get_value(readout= pIC50, system= Arachidonate 5-lipoxygenase (Bos taurus)) for O=C(O)CSC1c2cccc(O)c2C(=O)c2c(O)cccc21
Solution: < 4.52
